Experiment: Hydrolysis (pH stability profile) at pH 7.2 and 7.6
Format: physicochemical
Conditions: buffer, pH 7.6; read-out: Half life, t1/2 (hydrolysis)
assayMetric: half-life (min)
Form entry: value (min) — number only.

Reported half-life, compound Cc1cc(C)c(/C=C2\C(=O)N(CN3CCCC3)c3ccccc32)[nH]1 [Example 14] : ____
6

###

Assay: Plasma Stability Test: conversion of prodrug to drug after IV administration to dogs, HPLC analysis of blood plasma
Type: in vivo
Details: dog, IV at 2 mg/mL, blood plasma followed for 4 hours
assayMetric: half-life

Reported half-life, molecule Cc1cc(C)c(/C=C2\C(=O)N(CN3CCCC3)c3ccccc32)[nH]1 [Example 14] : ____
7.3 min

###

melting point reference

Here is how some compounds turned out for melting point.
1) Cc1cc(C)c(/C=C2\C(=O)N(CO)c3ccccc32)[nH]1 ... 200 to 202 °C
2) Cc1cc(C)c(/C=C2\C(=O)N(CN3CCCC3)c3ccccc32)[nH]1 ... 129 to 132 °C
3) CC(=O)OC(C)N1C(=O)/C(=C\c2[nH]c(C)cc2C)c2ccccc21 (stereo not shown) ... 107 to 110 °C

Consider the additional compound presented here.
Reported melting point, compound `Cc1cc(C)c(/C=C2\C(=O)N(COC(=O)CCC(=O)O)c3ccccc32)[nH]1` : ____
160 to 162 °C

Entry source: patent US7109185B2
